pIC50 values, listed per item
Test system: HepG2 cells
Assay: MTT cell viability, HepG2
Format: cell-based, human
Conditions: MTT, 48 hours, Mean ± SD; read-out: Growth Inhibition IC50 HepG2
In textbook form, pIC50 equals minus log to base ten of the concentration in mol/L.

O=c1[nH]cc(F)c(=O)[nH]1; 4.40

Field: next molecule
Input: Form field: reported pIC50 of N.N.[Cl][Pt][Cl] [Cisplatin, cisplatin]
Output: 4.44

====

// values below are reported IC50
Tested on: HepG2 cells
Assay: MTT cell viability, HepG2
Type: cell-based, human
Conditions: Homo sapiens, HepG2, 72 h, Mean ± SD; read-out: Growth Inhibition On Hepatic Cancer Cells IC50 72 hrs
The answer is to be given in µM; state only the numeric part.

Illustrative cases are given below, each with its answer.
CC(C)=CCCC(C)=CCCC(C)=CCON1C(=O)C2C3CCC(O3)C2C1=O (stereo not drawn); 8.2
O=C1OC(=O)C2C3CCC(O3)C12 (stereo not drawn) [Compound 2, reference compound]; 22.8

Now, please, on to the next compound.
Input: Enter reported IC50 observed with HepG2 cells for CC(C)=CCCC(C)=CCCC(C)=CCN1C(=O)C2C3CCC(O3)C2C1=O (stereo not drawn)
Output: 12.8

====

Test system: HepG2 cells
Test: MTT cell viability, HepG2
Type: cell-based, human
Conditions: Homo sapiens, HepG2, 48 h, MTT, 48 hours, Mean ± SD; read-out: Growth Inhibition IC50 HepG2
PARAMETER MEASURED: IC50
Answer shape: numeric part, then the unit.

A selection of reference data follows.
CC(C)=CCCC(C)=CCCC(C)=CCON1C(=O)C2C3CCC(O3)C2C1=O (stereo not shown); 8.3 µM
O=C1OC(=O)C2C3CCC(O3)C12 (stereo not shown) [Compound 2, reference compound]; 42 µM
CC(C)=CCCC(C)=CCCC(C)=CCN1C(=O)C2C3CCC(O3)C2C1=O (stereo not shown); 16.4 µM

Let us examine a further case.
Input: Please provide the recorded IC50 for COc1cccc2c1C(=O)c1c(O)c3c(c(O)c1C2=O)C[C@@](O)(C(=O)CO)C[C@@H]3O[C@H]1C[C@H](N)[C@H](O)[C@H](C)O1 , tested on HepG2 cells.
Output: 0.3 µM
